# protocolDescription: Cytotoxicity against human KB3-1 cells after 96 hrs by microculture tetrazolium assay
# Assay type: functional, cell-based
# conditionSet: KB 3-1, 96 h
observedProperty: IC50 (µM)
Numbers only, in µM.

Worked cases, answers included:
{"compound": "COc1cc(OC)c2c(=O)c3ccccc3n(C)c2c1COC(C)=O", "observedProperty": "IC50", "unitTag": "µM", "measuredNumber": 17.7}
{"compound": "COCc1c(OC)cc(OC)c2c(=O)c3ccccc3n(C)c12", "observedProperty": "IC50", "unitTag": "µM", "measuredNumber": 36.2}
{"compound": "COc1ccc2c(=O)c3cc4ccccc4cc3n(C)c2c1COC(C)=O", "observedProperty": "IC50", "unitTag": "µM", "measuredNumber": 7.9}
{"compound": "COc1ccc2c(=O)c3cc4ccccc4cc3n(C)c2c1CO", "observedProperty": "IC50", "unitTag": "µM", "measuredNumber": 22.5}

Hi team, please reply with IC50 for each item in this list.
1. COc1cc2c(c3c1c(=O)c1cc4ccccc4cc1n3C)[C@@H](OC(C)=O)[C@@H](OC(C)=O)C(C)(C)O2 (relative stereo)
2. COc1cc(OC)c2c(=O)c3ccccc3n(C)c2c1CO
3. COc1cc(OC(C)(C)COC(C)=O)c(COC(C)=O)c2c1c(=O)c1cc3ccccc3cc1n2C
4. COc1cc(OC(C)(C)CO)c(CO)c2c1c(=O)c1cc3ccccc3cc1n2C

0.095
34.1
4.9
26.2

The values you see were collected from ChEMBL document CHEMBL1154465.
